system: l(2)mbn cells; test: cytotoxicity in Drosophila l(2)mbn cells; type: cell-based; conditions: cytotoxicity, replicate 2, read-out: IC50 (2)
metric: IC50

Task: Please give the measured IC50 for this molecule: C=C1CCC2C(C)(CCC=C(C)C)C(O)CCC2(C)C1Cc1c(O)c(C)c(C)oc1=O (stereo not shown) [Compound 9, higginsianin B]
Result: 1540 nM

* * *

biological target: UniProt P05067; test: Th-T (thioflavin-T) assay of Aβ42 aggregation; assay type: biochemical; conditions: column suffix _10; measurement M28
Sequence (P05067 672-713): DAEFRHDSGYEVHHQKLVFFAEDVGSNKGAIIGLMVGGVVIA
Rule: measured Th-T fluorescence, mean of three wells (Fig. 7a) below 3 gets label 1; anything equal to or greater than 3 gets label 0.

C=C1CC[C@@H]2[C@](C)(CC[C@H]3O[C@H](C=C(C)C)C[C@@]23C)[C@@H]1Cc1c(OC)oc(CO)c(C)c1=O [Compound 20]	label 0
C=C1CCC2C(C)(CCC=C(C)C)C(O)CCC2(C)C1Cc1c(OC)oc(CO)c(C(=O)OC)c1=O (centres unmarked) [Compound 13]	label 1
C=C1CC[C@@H]2[C@](C)(CC[C@H]3O[C@H](C=C(C)C)C[C@@]23C)[C@@H]1Cc1c(OC)oc(CO)c(C(=O)OC)c1=O [Compound 21]	label 1

Task: Item C=C1CCC2C(C)(CCC=C(C)C)C(O)CCC2(C)C1Cc1c(OC)oc(CO)c(C)c1=O (centres unmarked) [Compound 12] : Th-T fluorescence, mean of three wells (Fig. 7a) beneath 3, strictly?
Result: label 1

Task: Consider C=C1CCC2C(C)(CCC=C(C)C)C(O)CCC2(C)C1Cc1c(OC)oc(C)c(C(=O)OC)c1=O (centres unmarked) [Compound 14] . Does its Th-T fluorescence, mean of three wells (Fig. 7a) lie strictly below 3?
Result: label 1

The measurements presented in this section are drawn from paper PMC7156458.
